assay: growth suppression of PTEN-deleted HCT116, pilot screen, cell-based, HCT116 clonal line, CellTiter-Glo (AID 824); details: 60 h, at 10 µM, hits give low values;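 also: 0% = 20 µM Hyamine control and 100% = vehicle cell control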
Records with an inconclusive call do not appear. The source made the active and inactive calls.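 The calls were made as follows: active = viability at or below 27.92% in each of two runs, the all-compound median minus 4 SD; inconclusive = no clear call, values can overlap the other calls; inactive = the rest.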
endpoint name: viability

Some compounds with known viability results, for comparison:
- compound: "CC(Oc1ccccc1)C(=O)OCC(=O)NC(=O)NCc1ccco1 (stereo unspecified)"
  endpoint name: "viability"
  result: "97.2% (inactive)"
- compound: "O=C(CSc1nnc(Cc2cc(=O)[nH]c(=O)[nH]2)n1-c1ccc(F)cc1)NC1CCCC1"
  endpoint name: "viability"
  result: "102% (inactive)"
- compound: "CCOC(=O)c1cccc(NC(=O)Cn2cc3c(n2)CCC(C)C3)c1 (stereo unspecified)"
  endpoint name: "viability"
  result: "92.3% (inactive)"
- compound: "c1ccc(CNc2ncnc3c2ncn3C2CCCCO2)cc1 (stereo unspecified)"
  endpoint name: "viability"
  result: "98% (inactive)"
- compound: "CCCOc1ccc(N2C(=O)CC(N3CCN(c4ccccc4OC)CC3)C2=O)cc1 (stereo unspecified)"
  endpoint name: "viability"
  result: "90.8% (inactive)"
- compound: "COc1ccc(C2C(C#N)=C(N)N3C(=C2C#N)Sc2ccccc23)cc1 (stereo unspecified)"
  endpoint name: "viability"
  result: "102% (inactive)"
- compound: "O=C(C1CCCN(S(=O)(=O)c2ccccc2)C1)N1CCCCCC1 (stereo unspecified)"
  endpoint name: "viability"
  result: "94.3% (inactive)"
- compound: "CC(C)OC(=O)CSc1nnc(-c2ccc(Cl)cc2)n1N"
  endpoint name: "viability"
  result: "95.7% (inactive)"

Need viability for each of these compounds.
1. CCc1cc(C(=O)Cc2cnn(-c3ccccc3)c2)c(O)cc1O
2. Cc1ccc2oc(=O)c3cc(C(=O)NCCN4CCN(C)CC4)sc3c2c1
3. CC(CNC(=O)C1CCCCC1)NC(=O)C1CCCCC1 (stereo unspecified)
4. COc1ccc(-c2nc(C#N)c(NC(C)C)o2)cc1
5. CN(C(=O)c1cnc2n(c1=O)CCS2)C1CCCCC1

Output line:
1. 99.1% (inactive)
2. 83.5% (inactive)
3. 92.5% (inactive)
4. 93.8% (inactive)
5. 110% (inactive)

Need viability for each of these compounds.
1. N#CCCCSc1nnc(-c2ccc(Cl)cc2)n1-c1ccccc1
2. CCOC(=O)c1ccc(NCn2c(=O)oc3ccccc32)cc1
3. CN1C(=O)CC(N2CCN(c3ncccn3)CC2)C1=O (stereo unspecified)
4. CCCc1n[nH]c2c1C(=O)CC(C)(C)C2
5. Cc1cc(Nc2cccc(Cl)c2C)n2ncnc2n1
6. COc1ccc(OC)c(CN2C(=O)c3ccccc3C2C(=O)NCc2cccnc2)c1 (stereo unspecified)
7. O=C(CCS(=O)(=O)c1cccc2nonc12)NC1CCCCCC1
8. CCN(CC)c1ccc(NC(=O)C2CC3CCC2C3)cc1 (stereo unspecified)

Output line:
["93% (inactive)", "87.6% (inactive)", "100% (inactive)", "102% (inactive)", "95% (inactive)", "97.6% (inactive)", "84.5% (inactive)", "80.6% (inactive)"]

Need viability for each of these compounds.
1. Cc1ccc2oc(=O)c3cc(C(=O)N4CCN(C(=O)c5ccco5)CC4)sc3c2c1
2. O=C1CN(C(=O)c2ccc(Br)o2)C(c2ccccc2)c2cc(F)ccc2N1 (stereo unspecified)
3. CCC(C)(C(=O)NC1CCCCC1)N(Cc1ccco1)C(=O)CNC(=O)c1ccccc1 (stereo unspecified)
4. CCCCCCC1C(C#N)=C(N)OC2=C1C(=O)CCC2 (stereo unspecified)

Output line:
99.5% (inactive)
78.7% (inactive)
90.1% (inactive)
92% (inactive)

Need viability for each of these compounds.
1. Cc1c(C(=O)N2CCC(C(N)=O)CC2)sc(N)c1C#N
2. COc1ccc2c(C)cc(=O)oc2c1C
3. CCOCCCNC(=O)Cn1nc(-c2ccccc2)ccc1=O
4. COc1ccc(-c2nnc(NC(=O)C(C)C)o2)cc1
5. COc1cc2[nH]c(=O)n(CCCCCC(=O)NCCCN3CCC(C)CC3)c(=O)c2cc1OC
6. Cc1nc(Cc2nnc(SCc3nc(N)nc(Nc4ccccc4C)n3)o2)cs1
7. CC1CC(C)CN(S(=O)(=O)c2ccc(NC(=O)C3COc4ccccc4O3)cc2)C1 (stereo unspecified)
8. Cc1ccc(S(=O)(=O)N(C)CCCC(=O)Nc2ccncc2)cc1

Output line:
["99.1% (inactive)", "94.7% (inactive)", "91.7% (inactive)", "102% (inactive)", "101% (inactive)", "97.5% (inactive)", "54.7% (inactive)", "79% (inactive)"]
